- methodNotes: oral pharmacokinetics (plasma, brain, CSF)
- Type: in vivo, Sprague Dawley rats
- studyConditions: rat, per os 10 mg/kg, CSF
# Lookup of reported CSF Cmax keyed by entry
Report as a plain number; the unit ng/mL is understood.

Record excerpt, results attached:
NC(=O)C(CO)N1CC2(CCCCC2)C1=O (single isomer, unassigned)
1758
CC1CCC2(CC1)CNC2=O (racemic) [Compound AD, 7-methyl-2-azaspiro[3.5]nonan-1-one]
1009.2
CC1CCC2(CC1)CN(CC(N)=O)C2=O (centres unmarked)
1362

*Q* Return reported CSF Cmax. Input compound: O=C1NCC12CCC(NCc1ccccc1)CC2 (centres unmarked)
*A* 459.46

*Q* Please give measured CSF Cmax of the following entry: CC1CCC2(CC1)CN(C(CCC(N)=O)C(N)=O)C2=O (single isomer, unassigned)
*A* 56.6

*Q* Answer with the recorded CSF Cmax of CCN(Cc1ccccc1)C1CCC2(CC1)CNC2=O (centres unmarked) only.
*A* 981.8

*Q* Query CSF Cmax for C[C@@H](O)[C@H](NC1CCC2(CC1)CNC2=O)C(N)=O (single isomer, unassigned) [AQ]
*A* 65.84

*Q* Identify CSF Cmax associated with the compound CC1CCC2(CC1)CN(C(CO)C(=O)O)C2=O (single isomer, unassigned)
*A* 22

*Q* Please give the documented CSF Cmax of COc1ccc(CN2CC3(CCC(O)CC3)C2=O)cc1 (centres unmarked)
*A* 217.3

*Q* Please look at this compound and report its CSF Cmax: O=C1NCC12CCC(OCc1ccccc1)CC2 (single isomer, unassigned) [AI, 7-(benzyloxy)-2-azaspiro[3.5]nonan-1-one]
*A* 269.17

*Q* Please report the measured CSF Cmax for CN(Cc1ccccc1)C1CCC2(CC1)CNC2=O (centres unmarked)
*A* 539.09
